Experiment: NCI Yeast Anticancer Drug Screen. Data for the sgs1 mgt1 strain (AID 161);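 note: 0% = growth of cultures given vehicle only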
Conditions: S. cerevisiae sgs1 mgt1 strain, at 50.0 µM, active compounds read high
Procedure: Growth inhibition of yeast strains with defined genetic alterations is measured as a screen for potential anti-cancer activity. Selected strains with alterations in DNA damage repair or cell cycle control were exposed to compounds and growth inhibition was measured relative to vehicle treated controls. The strain used in this assay is sgs1 mgt1
Compounds without any hit were thinned out: in the full panel of roughly 79,000, 15% have a hit.
assay_endpoint: growth inhibition (%)

compound="CCOC(=O)C1(C)CCCc2sc(N)c(C#N)c21 (stereo unspecified)" recorded_number=-11.1
compound=CCC(CC)(CC#N)C1CCCCC1 recorded_number=-0.6
compound="CC(=O)Nc1ccc2ccccc2c1SC1CC(=O)N(c2ccccc2)C1=O (stereo unspecified)" recorded_number=-26.2
compound="CC1(C)C2CCC(OC(=O)c3ccc([N+](=O)[O-])cc3)C1C2 (stereo unspecified)" recorded_number=3.5
compound=Cc1oc(C)c2c(N=Nc3ccc([N+](=O)[O-])cc3[N+](=O)[O-])c3ccccc3c(O)c12 recorded_number=11.4
compound=CCC(C(N)=O)C(N)=O recorded_number=-34.5

###

// reported growth inhibition for each item listed
assay: NCI Yeast Anticancer Drug Screen. Data for the cln2 rad14 strain (AID 165);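 note: 0% = growth equal to vehicle treated cultures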; details: S. cerevisiae cln2 rad14 strain, at 50.0 µM, active compounds read high
This is part of a sample that, as a whole, favours compounds with a hit. Of some 79,000 tested, about 15% had one in any assay.
assay_endpoint: growth inhibition (%)

molecule=C/C(=N\NC(=S)N1CCN(c2ccccn2)CC1)c1cccc2cccnc12 assay_endpoint="growth inhibition" unit_symbol=% recorded_number=2.4
molecule=Cn1nc(C(=O)NN)c(=O)[nH]c1=O assay_endpoint="growth inhibition" unit_symbol=% recorded_number=-20.6
molecule=C=CCNC(=S)/N=C/c1c(C(=O)OCC)[nH]n(-c2ccccc2)c1=O assay_endpoint="growth inhibition" unit_symbol=% recorded_number=-32.8
molecule="CC(Sc1ccccn1)C(=O)c1ccccc1 (configuration not stated)" assay_endpoint="growth inhibition" unit_symbol=% recorded_number=-52.5
molecule=c1ccc(-c2nnc(-c3ccccc3)c3nonc23)cc1 assay_endpoint="growth inhibition" unit_symbol=% recorded_number=-12.8
molecule=CCCCOC(=O)c1cccc2c1-c1ccccc1C2=O assay_endpoint="growth inhibition" unit_symbol=% recorded_number=-14.9
molecule="O=C(O)C(C(=O)O)C(c1ccccc1)c1ccccc1Br (configuration not stated)" assay_endpoint="growth inhibition" unit_symbol=% recorded_number=-184
molecule=CN(C)c1ccc2c(c1)c1cc(N(C)C)ccc1n2Cc1ccccc1 assay_endpoint="growth inhibition" unit_symbol=% recorded_number=-30.4
molecule=O=C(O)c1cccnc1-c1ccccc1 assay_endpoint="growth inhibition" unit_symbol=% recorded_number=-4.7
molecule=OCCN(CCO)CCCNc1ccnc2cc(Cl)ccc12 assay_endpoint="growth inhibition" unit_symbol=% recorded_number=-39.9
molecule=O=C(O)c1cccc(=O)o1 assay_endpoint="growth inhibition" unit_symbol=% recorded_number=3.35
molecule=Nc1nc(-c2ccccc2)c(Cl)c(-c2cc(Cl)ccc2O)n1 assay_endpoint="growth inhibition" unit_symbol=% recorded_number=25.3

###

assay: NCI Yeast Anticancer Drug Screen. Data for the bub3 strain (AID 167); conditions: S. cerevisiae bub3 mutant strain, at 50.0 µM
Compounds without any hit were thinned out: in the full panel of roughly 79,000, 15% have a hit. Activity calls are given as the source filed them. Cut-off read from the data, not from the text of the source: active = growth inhibition above about 70%; inactive = the rest.
Outcomes: active, inactive

molecule=O=C(CC(O)(C(F)(F)F)C(F)(F)F)c1cccc(S(=O)(=O)N2CCOCC2)c1 label_class=inactive
molecule=CC(=O)/C(=C\c1ccc([N+](=O)[O-])cc1)C(=O)CCN(C)C label_class=inactive
molecule="CCOC(=O)c1ccc(CS(=O)c2ccccc2)c([N+](=O)[O-])c1 (stereo not drawn)" label_class=inactive
molecule=CC(=O)Nc1ccc(/C=N\N=C\c2ccc(NC(C)=O)cc2)cc1 label_class=inactive
molecule=C/C(=C\N1CCCCC1)C(=O)c1ccc(F)cc1 label_class=inactive
molecule="O=C(O)CC(SSCc1ccccc1)C(=O)O (stereo not drawn)" label_class=inactive
molecule=O=c1oc2ccccc2cc1F label_class=inactive
molecule="CC1CC/C(=N\\O)CCCCC(=O)O1 (stereo not drawn)" label_class=inactive
molecule=CCCCCCCCCCCCS(=O)(=O)CC(=O)O label_class=inactive
molecule=CCOC(=O)c1c(C)c2c(n1C)CC/C(=C/NCCc1ccccc1)C2=O label_class=active
molecule=Cc1ncc(CO)c(Nc2ccccc2)n1 label_class=inactive
molecule="O=C(C(c1ccccc1)C(C(=O)N(Cc1ccccc1)Cc1ccccc1)c1ccccc1)N(Cc1ccccc1)Cc1ccccc1 (stereo not drawn)" label_class=inactive
molecule=Cc1cc(S(=O)(=O)Nc2n[nH]c(Nc3ccccc3)n2)c(SCC(=O)O)cc1Cl label_class=inactive
molecule="CCOC(=O)C(c1ccccc1)C(C)c1ccccc1 (stereo not drawn)" label_class=inactive
molecule=CSC(=N/N=C(\C)c1ccccn1)SC label_class=inactive
molecule="CN1C(=O)C(O)Nc2ncncc21 (stereo not drawn)" label_class=inactive
molecule="COC(=O)C1=C(C(=O)OC)C2(C(=O)OC)OC1(OC)C(C1(C(=O)OC)C(C(=O)OC)=C1C(=O)OC)=C2C(=O)OC (stereo not drawn)" label_class=inactive
molecule="NC(Cc1ccccc1)C(=O)Nc1ccccc1 (stereo not drawn)" label_class=inactive
molecule=CCN(CC)CCNc1c2ccc(Cl)cc2nc2c1c(C)nn2C label_class=inactive
molecule=O=C(Oc1c(Br)cc(Br)cc1C(=O)Oc1ccccc1)C(=O)Oc1c(Br)cc(Br)cc1C(=O)Oc1ccccc1 label_class=inactive
molecule="CCC1(C)N=C(C(N)=O)c2ncn(N=C(C)C)c2N1 (stereo not drawn)" label_class=inactive
molecule=Cc1ccc(S(=O)(=O)c2ccc(C)cc2[N+](=O)[O-])c([N+](=O)[O-])c1 label_class=inactive
molecule=COC(=O)C[CH2][Ge]([CH3])([CH3])[S]c1ccccc1 label_class=inactive

###

// reported growth inhibition for each item listed
assay: NCI Yeast Anticancer Drug Screen. Data for the mec2-1 strain (AID 157); details: S. cerevisiae mec2-1 strain, at 50.0 µM, active compounds read high
This is part of a sample that, as a whole, favours compounds with a hit. Of some 79,000 tested, about 15% had one in any assay.
assay_endpoint: growth inhibition (%)

compound=C(=C\c1csnn1)/c1ccc(/C=C/c2csnn2)cc1 recorded_number=15.9
compound=CCC[N+]1([O-])CCOCC1 recorded_number=-1.8
compound=CC(C)(C)C(=O)N/N=C\c1ccc([N+](=O)[O-])s1 recorded_number=-7.3
compound=O=c1c2ccccc2c(=O)n2n1C1C=CC2C1 recorded_number=-7.15
compound="COC(=O)C1=C(C)C=C(N2CCOCC2)C(C(=O)OC)C1c1ccccc1 (stereo not given)" recorded_number=-16.2
compound=O=C1OC(c2ccc([N+](=O)[O-])cc2)=N/C1=C\c1ccccc1 recorded_number=4.5
compound=C/C(=N\NC(C)(C)C)c1sc(-c2nc(C)c(/C(C)=N/NC(C)(C)C)s2)nc1C recorded_number=3.9
compound="O=C(COc1ccccc1Cl)N1N=C(c2ccc(Cl)cc2)CC1(O)c1ccccc1 (stereo not given)" recorded_number=-7.2
compound=Cc1cc2c(C(C)C)c(O)c(O)c(C=NCc3ccc(Br)cc3)c2c(O)c1-c1c(C)cc2c(C(C)C)c(O)c(O)c(C=NCc3ccc(Br)cc3)c2c1O recorded_number=1.6
compound=CC(=O)Nc1ccc(/C=N/NC(=O)COCC(=O)N/N=C/c2ccc(NC(C)=O)cc2)cc1 recorded_number=11.1

###

test: NCI Yeast Anticancer Drug Screen. Data for the cln2 rad14 strain (AID 165);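 note: 0% = growth equal to vehicle treated cultures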; details: S. cerevisiae cln2 rad14 strain, at 50.0 µM, active compounds read high
This is part of a sample that, as a whole, favours compounds with a hit. Of some 79,000 tested, about 15% had one in any assay.
// reported growth inhibition for each item listed
assay_endpoint: growth inhibition (%)

compound=C=CNC(=O)NC(=O)CSc1nnc(-c2ccccc2NC(=O)C(F)(F)F)c(=O)[nH]1 assay_endpoint="growth inhibition" unit_symbol=% recorded_number=14.9
compound="N#CC(N)c1ccc(OCCCCCCCCCCOc2ccc(C(N)C#N)cc2)cc1 (stereo not given)" assay_endpoint="growth inhibition" unit_symbol=% recorded_number=-7.8
compound=CCNC(=O)NC(=O)C(C)(C)Oc1ccc(Cl)cc1 assay_endpoint="growth inhibition" unit_symbol=% recorded_number=12.5
compound=CN(C)Cc1c(C(O)(c2ccccc2)c2ccccc2)cc2ccccc2c1Cl assay_endpoint="growth inhibition" unit_symbol=% recorded_number=-3
compound=COC(=O)C(O)(C(=O)OC)C1=C(N)C(=O)c2ccccc2C1=O assay_endpoint="growth inhibition" unit_symbol=% recorded_number=-5.4

###

test: NCI Yeast Anticancer Drug Screen. Data for the bub3 strain (AID 167); details: S. cerevisiae bub3 mutant strain, at 50.0 µM, active compounds read high
This is part of a sample that, as a whole, favours compounds with a hit. Of some 79,000 tested, about 15% had one in any assay.
// reported growth inhibition for each item listed
assay_endpoint: growth inhibition (%)

compound="CCNC(CC(N)=O)C(=O)O (configuration not stated)" recorded_number=-26.4
compound=CC(=O)NNc1nc(C)c(C(=O)NNC(=O)C(=O)Nc2ccc(Cl)cc2)s1 recorded_number=20
compound=c1ccc(COCCc2ccccn2)cc1 recorded_number=-22.2
compound=O=Cc1ccc(C=O)cc1 recorded_number=14.2
compound=CCOc1c(N2CCOCC2)c(=O)c1=O recorded_number=30.9
compound="COCC(=O)C(C(C)=O)C(c1ccc(N(C)C)cc1)C(C(C)=O)C(=O)COC (configuration not stated)" recorded_number=2.8
compound=COc1ccc(OC)c(N=Cc2ccc(C=Nc3cc(OC)ccc3OC)cc2)c1 recorded_number=-9
compound="O=C1C(N=Nc2ccc([N+](=O)[O-])cc2)Sc2nc3ccccc3n21 (configuration not stated)" recorded_number=-2.2
compound="COc1ccc(C(C#N)N(C)C)cc1OC (configuration not stated)" recorded_number=0.75
compound=OCCCNCc1ccccc1 recorded_number=-32.9
compound="CC(=O)OC1CC(OC(C)=O)C(OC(C)=O)C(C)O1 (configuration not stated)" recorded_number=-1.85
compound=CCCCCCCCCCCCCCCCS(=O)(=O)c1ccc(S(=O)(=O)CS(C)(=O)=O)cc1[N+](=O)[O-] recorded_number=21.1
